Exercise: for every item that follows, state its recorded selectivity ratio at 72 h.
Test: Selectivity index, ratio of IC50 for rat L6 cells assessed as reduction in cell viability measured after 72 hrs by Alamar blue based inverted microscopy analysis to IC50 for bloodstream Trypanosoma brucei rhodesiense STIB900 assessed as parasite growth inhibition measured after 70 hrs by Alamar blue assay
Type: toxicity
Details: read-out: Ratio IC50
// no unit, no text: just the number

Task: Tell me the measured selectivity ratio at 72 h of Fc1ccc(N=C=S)cc1 , please.
Result: 6.2

Task: # input compound: C[C@@H](CCCN=C=S)[C@H]1CC[C@H]2[C@@H]3CC[C@@H]4C[C@H](O)CC[C@]4(C)[C@H]3CC[C@]12C ; wanted: its selectivity ratio at 72 h
Result: 0.5

Task: If you can, please state the reported selectivity ratio at 72 h value of C[C@@H](CCCN=C=S)[C@H]1CC[C@H]2[C@@H]3[C@H](O)C[C@@H]4C[C@H](O)CC[C@]4(C)[C@H]3CC[C@]12C .
Result: 1.2

Task: Returns the measured selectivity ratio at 72 h for the input compound. Input: COc1ccc2c(c1OC)CO[C@@H]2[C@H]1c2c(cc3c(c2OC)OCO3)CCN1C(CN=C=S)c1cccnc1 (some centres undefined)
Result: 2.6

* * *

Assay: Selectivity index, ratio of IC50 for rat L6 cells assessed as reduction in cell viability measured after 72 hrs by Alamar blue based inverted microscopy analysis to IC50 for Leishmania donovani MHOM-ET-67/L82 axenic amastigotes assessed as parasite growth inhibition measured after 72 hrs by Alamar blue based inverted microscopy analysis
Format: toxicity
Conditions: L6 cells, read-out: Ratio IC50
Classify by selectivity ratio at 72 h. Ranges: low interval = under 4, middle interval = from 4 up to 10, high interval = 10 and over

Task: Category lookup for the compound COc1ccc2c(c1OC)CO[C@@H]2[C@H]1c2c(cc3c(c2OC)OCO3)CCN1[C@@H](CN=C=S)c1ccc(F)cc1
Result: high interval

Task: Returns: class label. Input: COC(=O)[C@H](Cc1c[nH]c2ccccc12)N=C=S
Result: high interval

Task: Form: Item = C[C@@H](CCCN=C=S)[C@H]1CC[C@H]2[C@@H]3CC[C@@H]4C[C@H](O)CC[C@]4(C)[C@H]3CC[C@]12C ; Class = ?
Result: low interval

Task: Record C[C@@H](CCCN=C=S)[C@H]1CC[C@H]2[C@@H]3[C@H](O)C[C@@H]4C[C@H](O)CC[C@]4(C)[C@H]3C[C@H](O)[C@]12C — which class?
Result: middle interval

Task: Sort into band: C[C@@H](CCCN=C=S)[C@H]1CC[C@H]2[C@@H]3[C@H](O)C[C@@H]4C[C@H](O)CC[C@]4(C)[C@H]3CC[C@]12C
Result: low interval

Task: Would you mind sorting COc1ccc2c(c1OC)CO[C@@H]2[C@H]1c2c(cc3c(c2OC)OCO3)CCN1C(CN=C=S)c1ccccc1 (some centres undefined) into the appropriate category?
Result: high interval

Task: # bin label for CC(C)c1ccc2c(c1)CC[C@H]1[C@](C)(CN=C=S)CCC[C@]21C
Result: low interval

Task: Into which bin does this compound go? S=C=NCCc1c[nH]c2ccccc12
Result: middle interval

* * *

Test system: L6
Assay: Cytotoxicity against rat L6 cells assessed as reduction in cell viability measured after 72 hrs by Alamar blue based inverted microscopy analysis
Conditions: L6, 72 h, read-out: IC50
experimental_readout: pIC50
Lab note: report pIC50 as minus log10 of the concentration in molar units, number only.

Task: Please look up its pIC50: C[C@@H](CCCN=C=S)[C@H]1CC[C@H]2[C@@H]3[C@H](O)C[C@@H]4C[C@H](O)CC[C@]4(C)[C@H]3CC[C@]12C
Result: 5.27

Task: Which value of pIC50 has been reported for COC(=O)[C@H](Cc1ccccc1)N=C=S in the records?
Result: 4.86

Task: Quick one: pIC50 for COc1ccc2c(c1OC)CO[C@@H]2[C@H]1c2c(cc3c(c2OC)OCO3)CCN1C(CN=C=S)c1ccccc1 (stereo not given in full) ?
Result: 4.73

Task: Quick one: pIC50 of COc1ccc2c(c1OC)CO[C@@H]2[C@H]1c2c(cc3c(c2OC)OCO3)CCN1[C@@H](CN=C=S)c1ccc(F)cc1 ?
Result: 4.87

Task: Endpoint output: pIC50 of Fc1ccc(N=C=S)cc1 . Value?
Result: 3.54
